# Tested on: Male Guinea pigs
# test.protocol: Primary in vivo bronchodilator assay for muscarinic antagonists (reversal of carbachol bronchoconstriction)
# Parameters: species or system guinea pig
# test.parameters: Cavia porcellus, iv, cumulative dose causing 50% reversal of carbachol bronchoconstriction
Counter-ions that a name gives are not always drawn.
measure: ED50 (mg/kg)
Response body: numeric value in mg/kg, unit text excluded.

Cc1nccn1CC1CC(c2ccccc2)(c2ccccc2)C(=O)O1 (stereo not shown) : 5.5
O.O=C1OC(C[n+]2ccn3c2CCC3)CC1(c1ccccc1)c1ccccc1.[Cl-] (stereo not shown) : 0.7
Cc1n(CC2CC(c3ccccc3)(c3ccccc3)C(=O)O2)cc[n+]1C (stereo not shown) : 0.85

Problem: Observed ED50 on Male Guinea pigs for CCc1nccn1CC1=CC(c2ccccc2)(c2ccccc2)C(=O)O1 , please.
Result: 1.9

Problem: Cool, now CCCc1n(CC2CC(c3ccccc3)(c3ccccc3)C(=O)O2)cc[n+]1C (stereo not shown)
Result: 0.11

Problem: Next up: CCc1nccn1CC1CC(c2ccccc2)(c2ccccc2)C(=O)O1 (stereo not shown) [hydrochloride]
Result: 4

Problem: Can you check CC(C)c1nccn1CC1CC(c2ccccc2)(c2ccccc2)C(=O)O1 (stereo not shown) [hydrochloride] next?
Result: 0.83

====

# target.desc: muscarinic cholinergic receptors on intestinal (ileal-longitudinal) smooth muscle (Cavia porcellus, UniProt H0W1Z3)
# Construct: The longitudinal muscle, with the myenteric plexus attached, is separated from the underlying circular muscle; from tissue; host or cells: guinea pig ileum, longitudinal smooth muscle with myenteric plexus
# Sequence (H0W1Z3 1-590): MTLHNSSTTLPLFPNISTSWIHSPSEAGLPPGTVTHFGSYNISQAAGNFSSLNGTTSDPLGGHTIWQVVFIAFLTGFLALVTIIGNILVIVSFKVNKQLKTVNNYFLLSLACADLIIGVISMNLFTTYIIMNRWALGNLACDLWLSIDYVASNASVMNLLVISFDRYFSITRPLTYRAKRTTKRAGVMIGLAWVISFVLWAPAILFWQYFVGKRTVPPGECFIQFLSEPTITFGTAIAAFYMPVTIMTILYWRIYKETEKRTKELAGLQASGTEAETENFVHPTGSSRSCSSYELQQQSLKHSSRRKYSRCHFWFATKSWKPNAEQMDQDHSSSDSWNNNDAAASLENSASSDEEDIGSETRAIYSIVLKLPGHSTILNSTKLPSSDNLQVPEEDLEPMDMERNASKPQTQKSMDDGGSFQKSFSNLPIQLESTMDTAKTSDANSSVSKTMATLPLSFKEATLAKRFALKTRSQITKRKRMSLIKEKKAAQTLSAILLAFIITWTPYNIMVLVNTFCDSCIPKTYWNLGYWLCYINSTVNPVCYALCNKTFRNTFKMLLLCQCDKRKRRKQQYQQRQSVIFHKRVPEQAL
# test.protocol: Antimuscarinic test: antagonism of carbachol contraction of isolated ileum (Muscarinic Antagonist Activity, Ileum)
# Design: species or system guinea pig
# test.parameters: carbachol agonist, 37° C.
Counter-ions that a name gives are not always drawn.
measure: Kb

Problem: // Kb lookup, key: COCc1n(CC2CC(c3ccccc3)(c3ccccc3)C(=O)O2)cc[n+]1C (stereo not shown)
Result: 40 nM

Problem: One more molecule: O=C1OC(Cn2cnc(-c3ccccc3)c2)CC1(c1ccccc1)c1ccccc1 (stereo not shown) [hydrochloride hydrate]
Result: 140 nM

Problem: How about this molecule: Cc1n(CC2CC(c3ccccc3)(c3ccccc3)C(=O)O2)cc[n+]1C (stereo not shown)
Result: 71 nM

Problem: Then CCc1nccn1CC1=CC(c2ccccc2)(c2ccccc2)C(=O)O1 ?
Result: 8.2 nM

====

# Tested on: Male Guinea pigs
# test.protocol: Primary in vivo bronchodilator assay for muscarinic antagonists (reversal of carbachol bronchoconstriction)
# Design: species or system guinea pig
# test.parameters: Cavia porcellus, iv, cumulative dose causing 50% reversal of carbachol bronchoconstriction
Structures can show the parent of a compound that is named as a salt.
Each entry below lists one item and its recorded ED50 value.

Before answering, review these 2 worked examples.
COCCc1nccn1CC1CC(c2ccccc2)(c2ccccc2)C(=O)O1 (stereo not drawn) [hydrochloride] : > 10 mg/kg
CCOCc1n(C)cc[n+]1CC1CC(c2ccccc2)(c2ccccc2)C(=O)O1 (stereo not drawn) : > 10 mg/kg

Problem: What ED50 value was documented for this molecule, CCOCc1nccn1CC1CC(c2ccccc2)(c2ccccc2)C(=O)O1 (stereo not drawn) ?
Result: > 10 mg/kg
